Reference for the values: the kinase profiling compilation of Christmann-Franck et al. (2016)

Overview of recorded residual activity for various compounds
Molecular target: ULK2 (human)
Assay: radiometric filter-binding kinase assay
Conditions: compound 0.1 µM
Numbers only; they are read as %.

Some compounds with recorded residual activity:
smi=CN(C)C/C=C/C(=O)Nc1cccc(C(=O)Nc2ccc(Nc3nccc(-c4cccnc4)n3)cc2)c1 value_reported=50
smi=CN1CCN(CCOc2cc(OC3CCOCC3)c3c(Nc4c(Cl)ccc5c4OCO5)ncnc3c2)CC1 value_reported=109

From here, focus on the item given below.
Would you mind telling me what residual activity value was observed for Cc1cc(NC(=O)c2cccc(NC(=O)/C=C/CN(C)C)c2)ccc1Nc1nccc(-c2cccnc2)n1 ?
28

----------
Biological target: UniProtKB Q9P286
Sequence (Q9P286 whole entry, looked up): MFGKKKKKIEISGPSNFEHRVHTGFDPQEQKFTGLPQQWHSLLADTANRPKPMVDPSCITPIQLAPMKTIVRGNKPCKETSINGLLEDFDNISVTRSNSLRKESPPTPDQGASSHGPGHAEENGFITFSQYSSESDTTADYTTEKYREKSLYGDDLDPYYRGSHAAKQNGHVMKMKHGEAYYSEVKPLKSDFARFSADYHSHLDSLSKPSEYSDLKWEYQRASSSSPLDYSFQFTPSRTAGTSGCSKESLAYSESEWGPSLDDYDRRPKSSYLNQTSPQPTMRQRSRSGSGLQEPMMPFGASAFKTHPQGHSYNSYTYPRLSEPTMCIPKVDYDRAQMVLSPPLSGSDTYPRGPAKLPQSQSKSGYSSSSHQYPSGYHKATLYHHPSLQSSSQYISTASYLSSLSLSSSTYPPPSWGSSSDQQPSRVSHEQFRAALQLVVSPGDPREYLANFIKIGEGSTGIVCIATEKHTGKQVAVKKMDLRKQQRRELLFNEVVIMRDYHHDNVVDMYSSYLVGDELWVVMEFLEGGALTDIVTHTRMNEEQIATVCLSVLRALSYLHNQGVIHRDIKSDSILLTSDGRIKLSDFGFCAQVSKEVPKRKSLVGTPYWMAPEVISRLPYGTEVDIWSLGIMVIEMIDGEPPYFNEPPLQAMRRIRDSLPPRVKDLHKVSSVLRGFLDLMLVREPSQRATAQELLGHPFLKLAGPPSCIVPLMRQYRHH
Assay: radiometric filter-binding kinase assay
Details: compound 10.0 µM
Property name: residual activity (%)
Just the number in %, nothing appended.

molecule=COC(=O)/C=C/C(=O)OC value_reported=87
molecule=Cc1cc(SCc2sc(-c3ccc(C(F)(F)F)cc3)nc2C)ccc1OCC(=O)O value_reported=111
molecule="Nc1cccc2c1CN(C1CCC(=O)NC1=O)C2=O (configuration not stated)" value_reported=77
molecule=Cc1ccc(Sc2cnc(Nc3cccc(Br)n3)s2)cc1C(=O)N1CCN(C(=O)CN)CC1 value_reported=22
molecule=NC(=O)c1c(NC(=O)C2CC2)sc2c1CCCC2 value_reported=54
molecule="O=C1Nc2nc(-c3c(O)cccc3OCC3CC3)cc(C3CCCNC3)c2CO1 (configuration not stated)" value_reported=72
molecule=NC(=O)Nc1ccc2c(c1)/C(=C/c1cc(-c3cccnc3)c[nH]1)C(=O)N2 value_reported=8
molecule=C[C@H]1CCCC(=O)CCC/C=C/c2cc(O)cc(O)c2C(=O)O1 value_reported=80

Requested read-out: residual activity. Entry: O=C(O)c1cc(N=Nc2ccc(S(=O)(=O)Nc3ccccn3)cc2)ccc1O
96

Sample CNc1nc(-c2ccc3c(N)n[nH]c3c2)cc(N2C[C@@H](C(=O)NC3CCCCC3)CC[C@H]2C)n1 — what was its residual activity?
99

Given the molecule CC(C)(C#N)c1ccc(N2C(=O)OCc3cnc4ccc(-c5cnc6ccccc6c5)cc4c32)cc1 , what is its reported residual activity?
80

Using the record for CCc1cncnc1N1CCN(Cc2nc3cc(C(F)(F)F)ccc3[nH]2)CC1 , report its residual activity.
87

Can you look up the measured residual activity of O=c1c(O)c(-c2ccc(O)c(O)c2)oc2cc(O)c(O)c(O)c12 for me?
55

Request the reported residual activity associated with COc1ccc2c(c1)c1c3c(c4c5ccccc5n(C)c4c1n2CC(O)CN(C)C)C(=O)NC3=O (configuration not stated)
85

Recorded residual activity for c1ccc2c(-c3cnn4cc(-c5ccc(N6CCNCC6)cc5)cnc34)ccnc2c1 , please?
72

Please look up its residual activity: CCCC(CCC)C(=O)O
101

----------
Biological target: DYRK2 (human)
Assay: radiometric filter-binding kinase assay
Details: compound 1.0 µM
Property name: residual activity (%)
State just the number; it will be interpreted in %.

molecule=Oc1ccc(/C=C/c2cc(O)cc(O)c2)cc1 property_name="residual activity" unit_of_measure=% value_reported=40
molecule=O=C(Nc1ccccc1-c1cn2c(CN3CCNCC3)csc2n1)c1cnc2ccccc2n1 property_name="residual activity" unit_of_measure=% value_reported=94
molecule="COc1ccc2c(c1)c1c3c(c4c5ccccc5n(C)c4c1n2CC(O)CN(C)C)C(=O)NC3=O (stereo not given)" property_name="residual activity" unit_of_measure=% value_reported=65

Record request: residual activity value, item CN1C(=O)[C@@H](Cc2c[nH]c3ccccc23)NC1=S
105

Look up residual activity for this molecule: CN(C)C/C=C/C(=O)Nc1cccc(C(=O)Nc2ccc(Nc3nccc(-c4cccnc4)n3)cc2)c1
56

Could you share which residual activity value was measured for Cc1nc(-c2ccc(OCC(C)C)c(C#N)c2)sc1C(=O)O ?
95

Data request, read-out residual activity, for CCc1cncnc1N1CCN(Cc2nc3cc(C(F)(F)F)ccc3[nH]2)CC1
104

residual activity lookup needed for Cc1cc(SCc2sc(-c3ccc(C(F)(F)F)cc3)nc2C)ccc1OCC(=O)O , thanks.
103

Record request: residual activity value, item CC(C)(C#N)c1ccc(N2C(=O)OCc3cnc4ccc(-c5cnc6ccccc6c5)cc4c32)cc1
73

Can you share its residual activity? I mean this molecule: NC(=O)Nc1ccc2c(c1)/C(=C/c1cc(-c3cccnc3)c[nH]1)C(=O)N2
2

----------
Recorded measurements of residual activity, one per entry
Test system: PAK2 (human), Q13177 [T402E]
Sequence (Q13177 whole entry T402E, looked up): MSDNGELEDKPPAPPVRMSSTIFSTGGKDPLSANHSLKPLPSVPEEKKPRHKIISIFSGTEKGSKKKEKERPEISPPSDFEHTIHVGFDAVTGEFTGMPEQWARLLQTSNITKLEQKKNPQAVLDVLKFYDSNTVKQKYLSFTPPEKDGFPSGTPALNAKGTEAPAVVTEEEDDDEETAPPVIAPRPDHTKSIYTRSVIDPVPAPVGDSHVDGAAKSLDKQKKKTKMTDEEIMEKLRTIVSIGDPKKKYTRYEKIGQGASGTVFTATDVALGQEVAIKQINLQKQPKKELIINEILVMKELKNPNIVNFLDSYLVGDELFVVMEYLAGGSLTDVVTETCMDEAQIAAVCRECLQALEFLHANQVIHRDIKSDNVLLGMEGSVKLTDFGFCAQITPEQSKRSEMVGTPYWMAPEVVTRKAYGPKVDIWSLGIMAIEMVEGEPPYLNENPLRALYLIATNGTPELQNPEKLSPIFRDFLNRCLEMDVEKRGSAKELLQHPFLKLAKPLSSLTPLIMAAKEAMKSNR
Experiment: radiometric filter-binding kinase assay
Conditions: compound 10.0 µM
A number alone suffices; assume %.

molecule=NC(=O)c1cc2c(-c3cccc(-c4ccccc4)c3)cnc(N)c2s1 property_name="residual activity" unit_of_measure=% value_reported=84
molecule=O=C(O)c1cc(N=Nc2ccc(S(=O)(=O)Nc3ccccn3)cc2)ccc1O property_name="residual activity" unit_of_measure=% value_reported=94
molecule="Nc1cccc2c1CN(C1CCC(=O)NC1=O)C2=O (centres undefined)" property_name="residual activity" unit_of_measure=% value_reported=103
molecule=NS(=O)(=O)OC[C@@H]1C[C@@H](n2ccc3c(N[C@H]4CCc5ccccc54)ncnc32)C[C@@H]1O property_name="residual activity" unit_of_measure=% value_reported=93
molecule=CCOC(=O)c1ccc(N2NC(=O)/C(=C/c3ccc([N+](=O)[O-])o3)C2=O)cc1 property_name="residual activity" unit_of_measure=% value_reported=91

Give its residual activity value. Item: CC1=C(CO)C(=O)O[C@@H]([C@@H](C)[C@H]2CC[C@H]3[C@@H]4C[C@H]5O[C@]56[C@@H](O)C=CC(=O)[C@]6(C)C4CC[C@]23C)C1 (some centres undefined)
86

I'd like to know its residual activity. The molecule in question is CN1C(=O)[C@@H](Cc2c[nH]c3ccccc23)NC1=S
94

Quick one: residual activity for NC1(c2ccc(-c3nc4ccn5c(=O)[nH]nc5c4cc3-c3ccccc3)cc2)CCC1 ?
103

What residual activity value was documented for this molecule, CCNc1nc(Nc2cc(F)c(C(=O)N3CCOCC3)cc2OC)ncc1C(F)(F)F ?
86

----------
Target: STK11 CAB39 STRADA (human) (UniProt Q9Y376+Q7RTN6+Q15831)
Sequence (Q15831 whole entry, looked up): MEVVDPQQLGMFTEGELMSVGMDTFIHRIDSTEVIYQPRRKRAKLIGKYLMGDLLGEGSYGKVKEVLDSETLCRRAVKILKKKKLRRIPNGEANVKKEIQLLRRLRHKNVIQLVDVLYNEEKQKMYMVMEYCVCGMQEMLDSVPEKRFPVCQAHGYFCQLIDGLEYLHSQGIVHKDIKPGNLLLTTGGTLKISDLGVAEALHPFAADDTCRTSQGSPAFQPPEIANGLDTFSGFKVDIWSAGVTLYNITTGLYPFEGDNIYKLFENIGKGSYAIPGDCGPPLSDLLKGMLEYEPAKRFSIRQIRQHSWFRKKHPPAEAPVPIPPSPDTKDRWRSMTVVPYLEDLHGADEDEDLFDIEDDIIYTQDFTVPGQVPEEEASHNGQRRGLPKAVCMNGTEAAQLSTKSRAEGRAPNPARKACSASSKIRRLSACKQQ
Sequence (Q7RTN6 whole entry, looked up): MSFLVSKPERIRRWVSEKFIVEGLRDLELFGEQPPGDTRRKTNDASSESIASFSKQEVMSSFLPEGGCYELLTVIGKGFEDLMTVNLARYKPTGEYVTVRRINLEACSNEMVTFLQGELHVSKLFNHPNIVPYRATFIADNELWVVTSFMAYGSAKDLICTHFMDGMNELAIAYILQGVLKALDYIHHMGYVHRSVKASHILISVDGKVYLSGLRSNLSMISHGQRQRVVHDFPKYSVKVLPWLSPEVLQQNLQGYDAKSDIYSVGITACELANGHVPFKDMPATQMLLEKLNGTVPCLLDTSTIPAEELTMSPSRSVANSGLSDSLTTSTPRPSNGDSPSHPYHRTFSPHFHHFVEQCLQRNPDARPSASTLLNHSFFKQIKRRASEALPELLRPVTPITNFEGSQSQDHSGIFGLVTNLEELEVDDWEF
Sequence (Q9Y376 whole entry, looked up): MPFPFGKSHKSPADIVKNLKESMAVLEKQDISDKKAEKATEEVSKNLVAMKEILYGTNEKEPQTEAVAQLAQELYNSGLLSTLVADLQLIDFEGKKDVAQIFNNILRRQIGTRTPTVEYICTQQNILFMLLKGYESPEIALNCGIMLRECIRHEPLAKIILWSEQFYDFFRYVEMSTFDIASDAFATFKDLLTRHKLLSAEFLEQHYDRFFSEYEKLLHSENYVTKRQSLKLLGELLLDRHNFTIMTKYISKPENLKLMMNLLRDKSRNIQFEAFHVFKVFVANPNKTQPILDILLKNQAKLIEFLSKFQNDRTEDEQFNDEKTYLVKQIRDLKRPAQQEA
Assay: radiometric filter-binding kinase assay
Details: compound 1.0 µM
Property name: residual activity (%)
Respond numerically; units are % and should not be typed.

Please review the entries below; each comes with its answer.
compound=O=C(O)c1cc(N=Nc2ccc(S(=O)(=O)Nc3ccccn3)cc2)ccc1O property_name="residual activity" unit_of_measure=% value_reported=124
compound=CNc1nc(-c2ccc3c(N)n[nH]c3c2)cc(N2C[C@@H](C(=O)NC3CCCCC3)CC[C@H]2C)n1 property_name="residual activity" unit_of_measure=% value_reported=110
compound="CC1=C(CO)C(=O)O[C@@H]([C@@H](C)[C@H]2CC[C@H]3[C@@H]4C[C@H]5O[C@]56[C@@H](O)C=CC(=O)[C@]6(C)C4CC[C@]23C)C1 (some centres undefined)" property_name="residual activity" unit_of_measure=% value_reported=111
compound=CN(C)C/C=C/C(=O)Nc1cccc(C(=O)Nc2ccc(Nc3nccc(-c4cccnc4)n3)cc2)c1 property_name="residual activity" unit_of_measure=% value_reported=91
compound="O=C(NOCC(O)CO)c1ccc(F)c(F)c1Nc1ccc(I)cc1Cl (centres undefined)" property_name="residual activity" unit_of_measure=% value_reported=80

API: the following record is the query input.
Fill in: residual activity of C=C1C(=O)OC2C1CC/C(C)=C/CCC1(C)OC21 (centres undefined) is ___
132

----------
Target: TTBK2 (human) (UniProt Q6IQ55)
Sequence (Q6IQ55 whole entry, looked up): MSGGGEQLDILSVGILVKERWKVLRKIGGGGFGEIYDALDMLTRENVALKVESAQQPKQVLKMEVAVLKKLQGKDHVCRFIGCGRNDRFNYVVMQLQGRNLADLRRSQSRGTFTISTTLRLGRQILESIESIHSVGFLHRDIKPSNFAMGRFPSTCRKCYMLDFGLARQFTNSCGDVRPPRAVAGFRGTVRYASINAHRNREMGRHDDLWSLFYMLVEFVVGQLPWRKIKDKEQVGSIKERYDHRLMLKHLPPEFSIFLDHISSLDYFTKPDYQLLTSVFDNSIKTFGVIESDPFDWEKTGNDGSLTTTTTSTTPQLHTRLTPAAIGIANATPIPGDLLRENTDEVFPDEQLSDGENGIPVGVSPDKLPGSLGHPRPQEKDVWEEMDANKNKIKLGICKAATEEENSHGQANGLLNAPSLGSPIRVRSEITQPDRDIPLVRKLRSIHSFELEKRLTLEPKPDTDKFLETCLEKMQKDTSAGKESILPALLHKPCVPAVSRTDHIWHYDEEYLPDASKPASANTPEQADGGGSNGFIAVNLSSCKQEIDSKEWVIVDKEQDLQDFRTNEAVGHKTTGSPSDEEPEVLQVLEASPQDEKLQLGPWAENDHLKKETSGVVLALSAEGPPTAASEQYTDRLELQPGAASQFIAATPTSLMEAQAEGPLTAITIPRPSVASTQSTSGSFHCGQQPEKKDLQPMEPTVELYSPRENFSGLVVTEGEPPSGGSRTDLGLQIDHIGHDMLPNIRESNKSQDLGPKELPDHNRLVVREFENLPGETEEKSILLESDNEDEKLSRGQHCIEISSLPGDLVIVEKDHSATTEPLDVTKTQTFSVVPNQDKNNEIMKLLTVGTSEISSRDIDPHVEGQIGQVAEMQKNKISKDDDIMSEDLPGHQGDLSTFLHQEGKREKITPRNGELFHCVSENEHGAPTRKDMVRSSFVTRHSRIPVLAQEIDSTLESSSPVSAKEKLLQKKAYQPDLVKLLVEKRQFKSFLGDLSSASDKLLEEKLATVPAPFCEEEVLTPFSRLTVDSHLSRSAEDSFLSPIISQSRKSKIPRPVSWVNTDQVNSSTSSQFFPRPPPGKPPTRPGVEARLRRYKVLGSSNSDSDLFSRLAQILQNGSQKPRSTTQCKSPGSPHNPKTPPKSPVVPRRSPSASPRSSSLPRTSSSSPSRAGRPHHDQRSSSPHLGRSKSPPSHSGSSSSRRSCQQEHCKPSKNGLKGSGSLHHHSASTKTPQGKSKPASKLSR
Assay: radiometric filter-binding kinase assay
Conditions: compound 0.1 µM
Property name: residual activity (%)
Value expressed in %; do not type the unit.

Below: 2 compounds and their reported residual activity.
compound="CC1=C(CO)C(=O)O[C@@H]([C@@H](C)[C@H]2CC[C@H]3[C@@H]4C[C@H]5O[C@]56[C@@H](O)C=CC(=O)[C@]6(C)C4CC[C@]23C)C1 (stereo not given in full)" value_reported=108
compound=Cc1ccc(-c2ccc3c(ccc4sc5c(c43)NC[C@@H](C)NC5=O)n2)cn1 value_reported=122

Write down the reported residual activity of CN1CCN(CCOc2cc(OC3CCOCC3)c3c(Nc4c(Cl)ccc5c4OCO5)ncnc3c2)CC1 , test system: TTBK2 (human) (UniProt Q6IQ55).
94

Please tell me: residual activity of CCn1c(-c2nonc2N)nc2cncc(CNC3CCNCC3)c21 , system TTBK2 (human) (UniProt Q6IQ55)?
91

Missing value: residual activity, TTBK2 (human) (UniProt Q6IQ55), entry CNC(=O)C1[C@H]2O[C@@](C)([C@@H]1N)n1c3ccccc3c3c4c(c5c6ccccc6n2c5c31)C(=O)NC4 (stereo not given in full) . Fill in?
102

----------
Biological target: MAPK13 (human) (UniProt O15264)
Sequence (O15264 whole entry, looked up): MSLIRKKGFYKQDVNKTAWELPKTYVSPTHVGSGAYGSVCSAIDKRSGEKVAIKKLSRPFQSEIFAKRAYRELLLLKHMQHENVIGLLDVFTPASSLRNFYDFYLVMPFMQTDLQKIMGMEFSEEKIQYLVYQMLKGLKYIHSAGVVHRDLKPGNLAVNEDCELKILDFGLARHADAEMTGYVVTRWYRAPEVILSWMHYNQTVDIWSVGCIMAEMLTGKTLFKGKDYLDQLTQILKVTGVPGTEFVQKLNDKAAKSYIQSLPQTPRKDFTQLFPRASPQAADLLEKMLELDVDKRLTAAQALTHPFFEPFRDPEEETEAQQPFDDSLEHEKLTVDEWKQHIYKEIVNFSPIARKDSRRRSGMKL
Experiment: radiometric filter-binding kinase assay
Settings: compound 1.0 µM
Parameter threshold = 90%. Response is rule met when residual activity meets or exceeds it, else rule not met.

Please review the following examples before continuing.
compound=CCCCCc1ccc(/C=C/[C@H](O)[C@@H](CO)NC)cc1 qualitative_label="rule met"
compound="C=C1C(=O)OC2C1CC/C(C)=C/CCC1(C)OC21 (stereo not given)" qualitative_label="rule met"
compound=C[C@H]1CCCC(=O)CCC/C=C/c2cc(O)cc(O)c2C(=O)O1 qualitative_label="rule not met"
compound=COc1cc(O)c2c(c1)/C=C/C[C@H](O)[C@H](O)C(=O)/C=C\C[C@H](C)OC2=O qualitative_label="rule met"
compound="COc1cc(O)c2c(c1)[C@H]1OC1C[C@H](O)[C@H](O)C(=O)/C=C\\C[C@H](C)OC2=O (stereo not given in full)" qualitative_label="rule met"
compound=O=C(NOC[C@H](O)CO)c1ccc(F)c(F)c1Nc1ccc(I)cc1Cl qualitative_label="rule not met"

Given Cc1cccc(Nc2nn(C)c3ncnc(N)c23)c1 , state whether its residual activity is at least 90%.
rule met

Would you say COc1ccc(-n2ncc3cnc(Nc4cc(OC)c(OC)c(OCCCN5CCN(C)CC5)c4)nc32)cc1 shows residual activity at minimum 90%?
rule not met
